Field: total protein half-life in vivo. Provide a value for each of the sequences that follow.
Assay: total protein half-life in vivo (active degradation + dilution); higher = more stable protein
Settings: wild type E. coli NCM3722; growth: C-lim chemostat; doubling time 6 h
One number for each entry, in h.

# sequence_string, u, readout_number
measured = [
    ("MNQPLLSVNNLTHLYAPGKGFSDVSFDLWPGEVLGIVGESGSGKTTLLKSISARLTPQQGEIHYENRSLYAMSEADRRRLLRTEWGVVHQHPLDGLRRQVSAGGNIGERLMATGARHYGDIRATAQKWLEEVEIPANRIDDLPTTFSGGMQQRLQIARNLVTHPKLVFMDEPTGGLDVSVQARLLDLLRGLVVELNLAVVIVTHDLGVARLLADRLLVMKQGQVVESGLTDRVLDDPHHPYTQLLVSSVLQN", "h", 4.8),
]

Which measured total protein half-life in vivo value corresponds to `MAIALVTGGSRGIGRATALLLAQEGYTVAVNYQQNLHAAQEVMNLITQAGGKAFVLQADISDENQVVAMFTAIDQHDEPLAALVNNAGILFTQCTVENLTAERINRVLSTNVTGYFLCCREAVKRMALKNGGSGGAIVNVSSVASRLGSPGEYVDYAASKGAIDTLTTGLSLEVAAQGIRVNCVRPGFIYTEMHASGGEPGRVDRVKSNIPMQRGGQAEEVAQAIVWLLSDKASYVTGSFIDLAGGK` ?
5.93

----------
Assay: total protein half-life in vivo (active degradation + dilution); higher = more stable protein
Details: E. coli NCM3722 delta-smpB; growth: N-lim chemostat; doubling time 6 h
Field: total protein half-life in vivo. Provide a value for each of the sequences that follow.
One number for each entry, in h.

# sequence_string, readout_number
measured = [
    ("MMYHIPGVLSPQDVARFREQLEQAEWVDGRVTTGAQGAQVKNNQQVDTRSTLYAALQNEVLNAVNQHALFFAAALPRTLSTPLFNRYQNNETYGFHVDGAVRSHPQNGWMRTDLSATLFLSDPQSYDGGELVVNDTFGQHRVKLPAGDLVLYPSSSLHCVTPVTRGVRVASFMWIQSMIRDDKKRAMLFELDNNIQSLKSRYGESEEILSLLNLYHNLLREWSEI", 2.31),
    ("MAQLYFYYSAMNAGKSTALLQSSYNYQERGMRTVVYTAEIDDRFGAGKVSSRIGLSSPAKLFNQNSSLFDEIRAEHEQQAIHCVLVDECQFLTRQQVYELSEVVDQLDIPVLCYGLRTDFRGELFIGSQYLLAWSDKLVELKTICFCGRKASMVLRLDQAGRPYNEGEQVVIGGNERYVSVCRKHYKEALQVDSLTAIQERHRHD", 3.82),
    ("MDKQSLHETAKRLALELPFVELCWPFGPEFDVFKIGGKIFMLSSELRGVPFINLKSDPQKSLLNQQIYPSIKPGYHMNKKHWISVYPGEEISEALLRDLINDSWNLVVDGLAKRDQKRVRPG [P0AAT2]", 5.28),
    ("MSWISPELIEILLTILKAVVILLVVVTCGAFMSFGERRLLGLFQNRYGPNRVGWGGSLQLVADMIKMFFKEDWIPKFSDRVIFTLAPMIAFTSLLLAFAIVPVSPGWVVADLNIGILFFLMMAGLAVYAVLFAGWSSNNKYSLLGAMRASAQTLSYEVFLGLSLMGVVAQAGSFNMTDIVNSQAHVWNVIPQFFGFITFAIAGVAVCHRHPFDQPEAEQELADGYHIEYSGMKFGLFFVGEYIGIVTISALMVTLFFGGWQGPLLPPFIWFALKTAFFMMMFILIRASLPRPRYDQVMSFGWKICLPLTLINLLVTAAVILWQAQ [P0AFD4]", 6.41),
]

Go through the list and state total protein half-life in vivo for each entry.
1. MQEIMQFVGRHPILSIAWIALLVAVLVTTFKSLTSKVKVITRGEATRLINKEDAVVVDLRQRDDFRKGHIAGSINLLPSEIKANNVGELEKHKDKPVIVVDGSGMQCQEPANALTKAGFAQVFVLKEGVAGWAGENLPLVRGK [P0AG27]
2. MALLPDKEKLLRNFLRCANWEEKYLYIIELGQRLPELRDEDRSPQNSIQGCQSQVWIVMRQNAQGIIELQGDSDAAIVKGLIAVVFILYDQMTPQDIVNFDVRPWFEKMALTQHLTPSRSQGLEAMIRAIRAKAAALS

1: 5.7; 2: 4.01

Which measured total protein half-life in vivo value corresponds to MAVQKNVIKGILAGTFALMLSGCVTVPDAIKGSSPTPQQDLVRVMSAPQLYVGQEARFGGKVVAVQNQQGKTRLEIATVPLDSGARPTLGEPSRGRIYADVNGFLDPVDFRGQLVTVVGPITGAVDGKIGNTPYKFMVMQVTGYKRWHLTQQVIMPPQPIDPWFYGGRGWPYGYGGWGWYNPGPARVQTVVTE [P0AA91] ?
5.76

----------
Experiment: total protein half-life in vivo (active degradation + dilution); higher = more stable protein
Conditions: wild type E. coli NCM3722; growth: C-lim chemostat; doubling time 12 h
Field: total protein half-life in vivo. Provide a value for each of the sequences that follow.
Answers are plain numbers, in h.

Go through the list and state total protein half-life in vivo for each entry.
1. MSRPLLQLALDHSSLEAAQRDVTLLKDSVDIVEAGTILCLNEGLGAVKALREQCPDKIIVADWKVADAGETLAQQAFGAGANWMTIICAAPLATVEKGHAMAQRCGGEIQIELFGNWTLDDARDWHRIGVRQAIYHRGRDAQASGQQWGEADLARMKALSDIGLELSITGGITPADLPLFKDIRVKAFIAGRALAGAANPAQVAGDFHAQIDAIWGGARA
2. MSAFTPASEVLLRHSDDFEQSRILFAGDLQDDLPARLDTAASRAHTQQFHHWQVLSRQMGDNARFSLVATADDVADCDTLIYYWPKNKPEAQFQLMNLLSLLPVGTDIFVVGENRSGVRSAEQMLADYAPLNKVDSARRCGLYFGRLEKQPVFDAEKFWGEYSVDGLTVKTLPGVFSRDGLDVGSQLLLSTLTPHTKGKVLDVGCGAGVLSVAFARHSPKIRLTLCDVSAPAVEASRATLAANGVEGEVFASNVFSEVKGRFDMIISNPPFHDGMQTSLDAAQTLIRGAVRHLNSGGELRIVANAFLPYPDVLDETFGFHEVIAQTGRFKVYRAIMTRQAKKG
3. MAKSLFRALVALSFLAPLWLNAAPRVITLSPANTELAFAAGITPVGVSSYSDYPPQAQKIEQVSTWQGMNLERIVALKPDLVIAWRGGNAERQVDQLASLGIKVMWVDATSIEQIANALRQLAPWSPQPDKAEQAAQSLLDQYAQLKAQYADKPKKRVFLQFGINPPFTSGKESIQNQVLEVCGGENIFKDSRVPWPQVSREQVLARSPQAIVITGGPDQIPKIKQYWGEQLKIPVIPLTSDWFERASPRIILAAQQLCNALSQVD

9.07
11.6
4.41

----------
Field: total protein half-life in vivo. Provide a value for each of the sequences that follow.
Test: total protein half-life in vivo (active degradation + dilution); higher = more stable protein
Conditions: E. coli NCM3722 delta-clpP delta-lon delta-hslV; growth: N-lim chemostat; doubling time 6 h
Give bare numbers, in h.

// solved cases for total protein half-life in vivo follow
# sequence_string, total protein half-life in vivo (h)
measured = [
    ("MKPGCTLFFLLCSALTVTTEAHAQTPDTATTAPYLLAGAPTFDLSISQFREDFNSQNPSLPLNEFRAIDSSPDKANLTRAASKINENLYASTALERGTLKIKSIQMTWLPIQGPEQKAAKAKAQEYMAAVIRTLTPLMTKTQSQKKLQSLLTAGKNKRYYTETEGALRYVVADNGEKGLTFAVEPIKLALSESLEGLNK", 6.2),
    ("MSEPLDLNQLAQKIKQWGLELGFQQVGITDTDLSESEPKLQAWLDKQYHGEMDWMARHGMLRARPHELLPGTLRVISVRMNYLPANAAFASTLKNPKLGYVSRYALGRDYHKLLRNRLKKLGEMIQQHCVSLNFRPFVDSAPILERPLAEKAGLGWTGKHSLILNREAGSFFFLGELLVDIPLPVDQPVEEGCGKCVACMTICPTGAIVEPYTVDARRCISYLTIELEGAIPEELRPLMGNRIYGCDDCQLICPWNRYSQLTTEEDFSPRKPLHAPELIELFAWSEEKFLKVTEGSAIRRIGHLRWLRNIAVALGNAPWDETILTALESRKGEHPLLDEHIAWAIAQQIERRNACIVEVQLPKKQRLVRVIEKGLPRDA", 5.59),
]

Go through the list and state total protein half-life in vivo for each entry.
1. MTMNSFERRNKIIQLVNEQGTVLVQDLAGVFAASEATIRADLRFLEQKGVVTRFHGGAAKIMSGNSETETQEVGFKERFQLASAPKNRIAQAAVKMIHEGMTDPTHVIWTQA
2. MGKLTLLLLAILVWLQYSLWFGKNGIHDYTRVNDDVAAQQATNAKLKARNDQLFAEIDDLNGGQEALEERARNELSMTRPGETFYRLVPDASKRAQSAGQNNR [P0A6S5]
3. MSKRYFVTGTDTEVGKTVASCALLQAAKAAGYRTAGYKPVASGSEKTPEGLRNSDALALQRNSSLQLDYATVNPYTFAEPTSPHIISAQEGRPIESLVMSAGLRALEQQADWVLVEGAGGWFTPLSDTFTFADWVTQEQLPVILVVGVKLGCINHAMLTAQVIQHAGLTLAGWVANDVTPPGKRHAEYMTTLTRMIPAPLLGEIPWLAENPENAATGKYINLALL

5.66
5.44
5.58

Go through the list and state total protein half-life in vivo for each entry.
1. MMNSTNKLSVIIPLYNAGDDFRTCMESLITQTWTALEIIIINDGSTDNSVEIAKYYAENYPHVRLLHQANAGASVARNRGIEVATGKYVAFVDADDEVYPTMYETLMTMALEDDLDVAQCNADWCFRETGETWQSIPTDRLRSTGVLTGPDWLRMGLSSRRWTHVVWMGVYRRDVIVKNNIKFIAGLHHQDIVWTTEFMFNALRARYTEQSLYKYYLHNTSVSRLHRQGNKNLNYQRHYIKITRLLEKLNRNYADKIMIYPEFHQQITYEALRVCHAVRKEPDILTRQRMIAEIFTSGMYKRLITNVRSVKVGYQALLWSFRLWQWRDKTRSHHRITRSAFNLR
2. MRLDKFIAQQLGVSRAIAGREIRGNRVTVDGEIVRNAAFKLLPEHDVAYDGNPLAQQHGPRYFMLNKPQGYVCSTDDPDHPTVLYFLDEPVAWKLHAAGRLDIDTTGLVLMTDDGQWSHRITSPRHHCEKTYLVTLESPVADDTAEQFAKGVQLHNEKDLTKPAVLEVITPTQVRLTISEGRYHQVKRMFAAVGNHVVELHRERIGGITLDADLAPGEYRPLTEEEIASVV [P0AA43]

1: 5.55; 2: 5.25
